Tested on: K4 kissing-loop RNA reporter;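 further: bound reporter read as fluorescence of individual clusters on recovered sequencing chips by microscopy, with normalized cluster intensities fitted with a binding model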
Assay: apparent KD of K4 kissing-loop reporter; higher = weaker reporter binding
Conditions: Eterna round: R107; input ligand: none
metric: apparent KD of K4 kissing-loop reporter (nM)

{"seq_text": "AAUUCAAACUGAAGGAGCGAGCAAAUCGGAGUGAUGUUCCAAGCGAGUGAUGUUCGCAUAGCUCAGGUAGGUCGCAGUUUGGAUA [Same State Arginie B GF 13]", "value_reported": 107}
{"seq_text": "GCCGUAGAUUGAAGGAGCGCCUUCUUACCAAGAGUGAUGUUCUUAGGUACCAUGUUCAGUAGGCAGGUAGGUCGCAAUCUACGGC", "value_reported": 484}
{"seq_text": "CGUUCCUCUGUCGAUACCAGCUUCAGUUGGCGGCCAGUGAUGUUGGUAUCGCCGAUGCCAAGCCCUUGGCAGCGACAGGAGACCC [Usleanza]", "value_reported": 211}
